Provenance of the data: ChEMBL document CHEMBL3244125

# experiment_description: Inhibition of Phe-tRNA synthetase in rel+ Escherichia coli B assessed as growth inhibition
pIC50: −log10 of the molar value.
Binary classification by pIC50, with 4 as an inclusive lower bound for Met; all other cases are Not met.

| compound | assigned_category |
| --- | --- |
| NCCc1ccccc1 [PHENETHYLAMINE] | Not met |
| C[C@H](Cc1ccccc1)NCc1ccccc1 [N-BENZYLAMPHETAMINE] | Met |

### Prompt Has C[C@@H](Cc1ccccc1)NCc1ccccc1 a recorded pIC50 greater than or equal to 4?
### Response Not met
